target_of_assay: CIB1 and αIIb interaction (CIB1-GST : F-αIIb peptide) (Homo sapiens)
Construct: made in house; host or cells: BL-21 plus RIL cells (E. coli)
Sequence (Q99828 1-191): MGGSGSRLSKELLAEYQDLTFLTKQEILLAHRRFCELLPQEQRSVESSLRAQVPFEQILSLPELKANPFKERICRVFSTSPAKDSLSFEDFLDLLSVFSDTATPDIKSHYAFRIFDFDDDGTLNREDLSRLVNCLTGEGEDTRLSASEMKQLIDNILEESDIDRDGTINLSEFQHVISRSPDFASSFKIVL
experiment_summary: FP assay, 1536-well qHTS format (primary and confirmatory screen)
Format: binding
experimental_context: confirmatory screen; negative = inhibition
assay_readout: CONFIRMATORY SCREEN Efficacy (%)
Write down the numeric answer in % and omit the unit.

Name the recorded CONFIRMATORY SCREEN Efficacy (%) of the item N#Cc1cnc(NS(=O)(=O)c2ccc(NC(=O)Cc3ccc(F)c(Cl)c3)cc2)s1.O=C(O)C(F)(F)F in your answer.
-50

Name the recorded CONFIRMATORY SCREEN Efficacy (%) of the item Cc1ccccc1C(=O)c1no[n+]([O-])c1C(=O)c1ccccc1C.O=C(O)C(F)(F)F in your answer.
-39

Name the recorded CONFIRMATORY SCREEN Efficacy (%) of the item O=C(O)C(F)(F)F.OCc1ccc(-c2ccc3ncnc(NCc4cccs4)c3c2)o1 in your answer.
-62

Name the recorded CONFIRMATORY SCREEN Efficacy (%) of the item COC(=O)C12C(=O)C(C)(O)C(=O)C1(C)C(C)=CC1C34CCC(OC3=O)C(C)(CO)C4CCC12C (centres unmarked) in your answer.
-42

* * *

target_of_assay: GST-CIB1 : F-scrambled peptide (Homo sapiens, UniProt Q99828)
Construct: made in house; host or cells: BL-21 plus RIL cells (E. coli)
Sequence (Q99828 1-191): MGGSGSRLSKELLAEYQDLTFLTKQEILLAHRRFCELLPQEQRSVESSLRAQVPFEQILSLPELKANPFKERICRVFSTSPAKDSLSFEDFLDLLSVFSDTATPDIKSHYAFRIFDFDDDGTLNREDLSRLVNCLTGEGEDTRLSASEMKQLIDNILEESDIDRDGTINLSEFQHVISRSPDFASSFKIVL
experiment_summary: FP scrambled-peptide counter screen, 1536-well format
Format: binding
experimental_context: counterscreen, qHTS curve class; negative sign = inhibitory curve
Reported Curve Class (counterscreen) is given for each of the following compounds.

[[record]]
smiles = "C=CC1=C(C)c2cc3[nH]c(cc4nc(cc5[nH]c(cc1n2)c(C)c5CCC(=O)O)C(CCC(=O)O)=C4C)c(C)c3C=C"
target_of_assay = "GST-CIB1 : F-scrambled peptide (Homo sapiens, UniProt Q99828)"
recorded_value = -2.2

[[record]]
smiles = "FC(F)(F)c1cccc(N2CCN(C(=S)Nc3nccc4cccnc34)CC2)c1.O=C(O)C(F)(F)F"
target_of_assay = "GST-CIB1 : F-scrambled peptide (Homo sapiens, UniProt Q99828)"
recorded_value = -1.2

[[record]]
smiles = "CC1(C)C=CN2C(=O)C3=CCCN3C(=O)[C@@H]2C[C@@]12Nc1ccccc1C2=O"
target_of_assay = "GST-CIB1 : F-scrambled peptide (Homo sapiens, UniProt Q99828)"
recorded_value = -2.2


Now for the compound whose Curve Class (counterscreen) we want.
Name the recorded Curve Class (counterscreen) of the item COc1ccc(CC(=O)Nc2ccc(S(=O)(=O)Nc3cc(C)on3)cc2)cc1C.O=C(O)C(F)(F)F in your answer.
4
